test-system: ALFY-FYVE (Homo sapiens, UniProt Q8IZQ1)
Sequence (Q8IZQ1 3428-3518): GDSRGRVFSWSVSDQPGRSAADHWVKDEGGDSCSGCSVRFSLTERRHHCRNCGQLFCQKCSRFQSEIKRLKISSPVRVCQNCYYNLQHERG
assay-readout: Kd

Exercise: # input compound: O=P(O)(O)O[C@@H]1[C@H](O)[C@H](OP(=O)(O)O)[C@@H](O)[C@H](O)[C@H]1O [Ins(1,3)P2] ; wanted: its Kd
Solution: 50.5 to 184 µM

Reference source: paper PMC7902475
